System: vancomycin-middle resistant Staphylococcus aureus Mu50 strain
Experiment: In vitro antibacterial activity assay (MIC, CLSI dilution method)
Assay type: cell-based
Settings: Staphylococcus aureus, 16 h, S. aureus Mu50, 37° C., read-out: MIC Mu50
What MIC was measured for each of the following?
Give bare numbers, in µg/mL.

CN[C@H](CC(C)C)C(=O)N[C@H]1C(=O)N[C@@H](CC(N)=O)C(=O)N[C@H]2C(=O)N[C@H]3C(=O)N[C@H](C(=O)N[C@H](C(=O)O)c4cc(O)c(CNCCO[C@@H]5OC(CO)[C@H](O)C(O)C5O)c(O)c4-c4cc3ccc4O)[C@H](O)c3ccc(c(Cl)c3)Oc3cc2cc(c3OC2O[C@H](CO)C(O)C(O)[C@H]2O[C@@H]2CC(C)[C@@H](O)C(C)(NCc3ccc(-c4ccc(Cl)cc4)cc3)C2)Oc2ccc(cc2Cl)[C@H]1O (stereo partly drawn)    1
CCCCCCCCCCNCCNC1(C)C[C@H](O[C@H]2C(Oc3c4cc5cc3Oc3ccc(cc3Cl)[C@@H](O)[C@@H](NC(=O)[C@@H](CC(C)C)NC)C(=O)N[C@@H](CC(N)=O)C(=O)N[C@H]5C(=O)N[C@H]3C(=O)N[C@H](C(=O)N[C@H](C(=O)O)c5cc(O)c(CNCCOC6OC(CO)[C@@H](O)C(O)C6O)c(O)c5-c5cc3ccc5O)[C@H](O)c3ccc(c(Cl)c3)O4)O[C@H](CO)C(O)C2O)OC(C)[C@H]1O (stereo partly drawn)    2

The record that follows has no MIC shown yet.
# get_value(readout='MIC', item= CCc1ccc(CNC2(C)C[C@H](O[C@H]3C(Oc4c5cc6cc4Oc4ccc(cc4Cl)[C@@H](O)[C@@H](NC(=O)[C@@H](CC(C)C)NC)C(=O)N[C@@H](CC(N)=O)C(=O)N[C@H]6C(=O)N[C@H]4C(=O)N[C@H](C(=O)N[C@H](C(=O)O)c6cc(O)c(CNCCCNC(=O)[C@H](O)[C@@H](O)[C@H](O)[C@H](O)CO)c(O)c6-c6cc4ccc6O)[C@H](O)c4ccc(c(Cl)c4)O5)O[C@H](CO)C(O)C3O)CC(C)[C@H]2O)cc1 (stereo partly drawn) )
8

* * *

System: vancomycin-sensitive Staphylococcus aureus Newman strain
Assay: In vitro antibacterial activity assay (MIC, CLSI dilution method)
Type: cell-based
Details: Staphylococcus aureus; S. aureus Newman, 37° C., 16 h
QUANTITY_KIND: MIC

# example entries with known answers
CN[C@H](CC(C)C)C(=O)N[C@H]1C(=O)N[C@@H](CC(N)=O)C(=O)N[C@H]2C(=O)N[C@@H]3C(=O)N[C@H](C(=O)N[C@H](C(=O)O)c4cc(O)c(CNC5C(O)OC(CO)[C@H](O)[C@@H]5O)c(O)c4-c4cc3ccc4O)[C@H](O)c3ccc(c(Cl)c3)Oc3cc2cc(c3O[C@@H]2O[C@H](CO)C(O)C(O)[C@H]2O[C@H]2CC(C)(NCc3ccc(-c4ccc(Cl)cc4)cc3)[C@H](O)[C@H](C)O2)Oc2ccc(cc2Cl)[C@H]1O (stereo partly drawn)    ≤ 0.0625 µg/mL
CN[C@H](CC(C)C)C(=O)N[C@H]1C(=O)N[C@@H](CC(N)=O)C(=O)N[C@H]2C(=O)N[C@H]3C(=O)N[C@H](C(=O)N[C@H](C(=O)O)c4cc(O)c(CNCCO[C@@H]5OC(CO)[C@H](O)C(O)C5O)c(O)c4-c4cc3ccc4O)[C@H](O)c3ccc(c(Cl)c3)Oc3cc2cc(c3OC2O[C@H](CO)C(O)C(O)[C@H]2O[C@@H]2CC(C)[C@@H](O)C(C)(NCc3ccc(-c4ccc(C(F)(F)F)cc4)cc3)C2)Oc2ccc(cc2Cl)[C@H]1O (stereo partly drawn)    ≤ 0.0625 µg/mL

The record that follows has no MIC shown yet.
# get_value(readout='MIC', item= CN[C@H](CC(C)C)C(=O)N[C@H]1C(=O)N[C@@H](CC(N)=O)C(=O)N[C@H]2C(=O)N[C@@H]3C(=O)N[C@H](C(=O)N[C@H](C(=O)O)c4cc(O)c(CNC5C(O)OC(CO)[C@H](O)[C@@H]5O)c(O)c4-c4cc3ccc4O)[C@H](O)c3ccc(c(Cl)c3)Oc3cc2cc(c3O[C@@H]2O[C@H](CO)C(O)C(O)[C@H]2O[C@H]2CC(C)(NCc3ccc(-c4ccc(C(F)(F)F)cc4)cc3)[C@H](O)[C@H](C)O2)Oc2ccc(cc2Cl)[C@H]1O (stereo partly drawn) )
≤ 0.0625 µg/mL

meta.source: patent US10961278B2
